This collection of values is drawn from patent US5204364A.

Property: pIC50; scope: individual compounds
Tested on: TxA2 synthase
Experiment: TxB2 synthesis (TxA2 synthase activity) in whole blood of normal rats during clotting, in vitro
Format: cell-based, rat (Sprague Dawley)
Settings: Rattus norvegicus; whole blood, clotted 1 hour at 37° C., TxB2 by RIA; limits for p = 0.95; read-out: In vitro effect on TxB2 synthesis in normal rats, IC50
# pIC50 is unitless: minus log10 of the molar concentration; print number only

Reference set, count: 2
INSERT INTO results (compound, observable, value_observed) VALUES
  ('C=C1c2cc(C(=O)O)ccc2CCC1n1ccnc1 (stereo not shown)', 'pIC50', 6.13),
  ('CC1=C(n2ccnc2)CCc2ccc(C(=O)O)cc21', 'pIC50', 6.54);

Exercise: Report pIC50 for O=C(O)c1ccc2c(c1)C=C(n1ccnc1)CC2 [FCE 22178, reference compound] please.
Key: 6.00

Exercise: Report pIC50 for CC1=C(Cn2ccnc2)CCc2ccc(C(=O)O)cc21 please.
Key: 7.37
